Entry source: ChEMBL document CHEMBL1153617

system: HepG2; assay: Cytotoxicity against human HepG2 cells assessed as reduction in cell growth at 10 umol/ml after 24 hrs by MTT assay relative to control; type: functional; design: scale not given: the % may be the effect or the level left
The entries below are paired with their reported Activity.
Give the value, in units of %, as a plain number.

Check out these entries, answers already filled in.
CC1(C)CC(=O)C=C(NCC(=O)N/N=C\c2ccc(O)cc2)C1 40.32
CCOC(=O)CNC1=CC(=O)CC(C)(C)C1 50
CC1(C)CC(=O)C=C(NCC(=O)N/N=C\c2ccc(Br)cc2)C1 40.06

Consider `CCOC(=O)CN1C2=C(C(=O)CC(C)(C)C2)C(c2ccccc2)C2=C1CC(C)(C)CC2=O` . Its measured Activity is 3.32

Consider `COc1ccc(/C=N\NC(=O)CNC2=CC(=O)CC(C)(C)C2)cc1` . Its measured Activity is 16.99

Consider `CCOC(=O)CN1C2=C(C(=O)CC(C)(C)C2)C(c2ccc(Cl)cc2)C2=C1CC(C)(C)CC2=O` . Its measured Activity is 54.14

====

test system: Hepatovirus A; assay: Antiviral activity against HAV MBB in human HepG2 cells assessed as reduction in viral titer at 20 ug/ml by plaque reduction assay; type: functional, Human hepatitis A virus Hu/Northern Africa/MBB/1978; set-up: scale not given: the % may be the effect or the level left
Response field label: string, one of 1 (Activity strictly below 40%) or -1.

Some solved cases for reference:
CCOC(=O)CN1C2=C(C(=O)CC(C)(C)C2)C(c2ccc(O)cc2)C2=C1CC(C)(C)CC2=O -1
CC1(C)CC(=O)C=C(NCC(=O)NN)C1 1
CC1(C)CC(=O)C=C(NCC(=O)N/N=C\c2ccc(Br)cc2)C1 1
CCOC(=O)CN1C2=C(C(=O)CC(C)(C)C2)C(c2ccccc2)C2=C1CC(C)(C)CC2=O -1
CC1(C)CC(=O)C=C(NCC(=O)N/N=C\c2ccccc2)C1 -1

Proceed to the following item.
State whether 40% exceeds Activity recorded for `CCOC(=O)CN1C2=C(C(=O)CC(C)(C)C2)C(c2ccc(Cl)cc2)C2=C1CC(C)(C)CC2=O` .
-1

====

system: Hepatovirus A; test: Antiviral activity against HAV MBB in human HepG2 cells assessed as reduction in viral titer at 20 ug/ml by plaque reduction assay; format: functional, Human hepatitis A virus Hu/Northern Africa/MBB/1978; set-up: scale not given: the % may be the effect or the level left
Class boundaries, taken from values of Activity, are as follows: zone 1: < 40%; zone 2: ≥ 40% and < 50%; zone 3: ≥ 50%

Some solved cases for reference:
CC1(C)CC(=O)C=C(NCC(=O)N/N=C\c2ccc([N+](=O)[O-])cc2)C1 zone 2
CCOC(=O)CNC1=CC(=O)CC(C)(C)C1 zone 1
COc1ccc(/C=N\NC(=O)CNC2=CC(=O)CC(C)(C)C2)cc1 zone 1
CCOC(=O)CN1C2=C(C(=O)CC(C)(C)C2)C(c2ccc(OC)cc2)C2=C1CC(C)(C)CC2=O zone 2
NC12CC3CC(CC(C3)C1)C2 zone 2

Proceed to the following item.
In plain terms, what class is `CC1(C)CC(=O)C=C(NCc2nnc(S)n2-c2ccccc2)C1` ?
zone 1

====

The entries below are paired with their reported Activity.
test system: HepG2; experiment: Cytotoxicity against human HepG2 cells assessed as reduction in cell growth at 10 umol/ml after 24 hrs by MTT assay relative to control; assay type: functional; set-up: scale not given: the % may be the effect or the level left

Check out these entries, answers already filled in.
CC1(C)CC(=O)C=C(NCC(=O)NN)C1 57.4%
CCOC(=O)CN1C2=C(C(=O)CC(C)(C)C2)C(c2ccc(OC)cc2)C2=C1CC(C)(C)CC2=O 37.99%
CCOC(=O)CN1C2=C(C(=O)CC(C)(C)C2)C(c2ccc(Br)cc2)C2=C1CC(C)(C)CC2=O 49.17%
CC1(C)CC(=O)C=C(NCC(=O)NNC(=S)Nc2ccccc2)C1 54.84%

Consider `CCOC(=O)CN1C2=C(C(=O)CC(C)(C)C2)C(c2ccc(O)cc2)C2=C1CC(C)(C)CC2=O` . Its measured Activity is 54.7%

Consider `CC1(C)CC(=O)C=C(NCc2nnc(S)n2-c2ccccc2)C1` . Its measured Activity is 35.64%

Consider `CC1(C)CC(=O)C=C(NCC(=O)NNC(=O)NCCCl)C1` . Its measured Activity is 58.29%
